Test system: Human alphaherpesvirus 1
Test: Antiviral activity against HSV1-induced cytopathic effect in human rhabdomyosarcoma cells assessed as suppression of viral replication
Type: functional, organism-based
Binary call on EC50 with cut-off 40 µM: strictly below means Met, and equality or higher means Not met.

Record excerpt, results attached:
{"columns": ["compound.smiles", "answer.label"],
 "data": [
  ["CC(=O)Nc1cc(C(C)(C)C)cc(C(C)(C)C)c1O", "Met"],
  ["CCCC(=O)Nc1cc(C(C)(C)C)cc(C(C)(C)C)c1O", "Met"],
  ["COc1c(NC(C)=O)cc(C(C)(C)C)cc1C(C)(C)C", "Not met"],
  ["CCC(=O)Nc1cc(C(C)(C)C)cc(C(C)(C)C)c1O", "Met"],
  ["CC(C)(C)c1cc(N)c(O)c(C(C)(C)C)c1", "Not met"]
]}

Prompt line: Take the molecule CC(C)(C)c1cc(Nc2ccccc2)c(O)c(C(C)(C)C)c1 and say whether its EC50 is less than 40 µM.
Response line: Met

Prompt line: Take the molecule COc1c(Nc2ccccc2)cc(C(C)(C)C)cc1C(C)(C)C and say whether its EC50 is less than 40 µM.
Response line: Not met

----------
Some compounds, each annotated with its measured EC90.
Test system: Human alphaherpesvirus 1
Experiment: Antiviral activity against HSV1-induced cytopathic effect in human rhabdomyosarcoma cells assessed as suppression of viral replication
Format: functional, organism-based
Lab book: enter the figure in µM, no units written.

Guide cases for EC90, answers given:
{"columns": ["compound.smiles", "EC90 / µM"],
 "data": [
  ["CCC(=O)Nc1cc(C(C)(C)C)cc(C(C)(C)C)c1O", 64.5],
  ["CC(=O)Nc1cc(C(C)(C)C)cc(C(C)(C)C)c1O", 14.8],
  ["CC(C)(C)c1cc(Nc2ccccc2)c(O)c(C(C)(C)C)c1", 169],
  ["COc1c(Nc2ccccc2)cc(C(C)(C)C)cc1C(C)(C)C", 624],
  ["CC(C)(C)c1cc(N)c(O)c(C(C)(C)C)c1", 288]
]}

Prompt line: // returns reported EC90 for input CCCC(=O)Nc1cc(C(C)(C)C)cc(C(C)(C)C)c1O
Response line: 14.1

Prompt line: // returns reported EC90 for input COc1c(NC(C)=O)cc(C(C)(C)C)cc1C(C)(C)C
Response line: 1960
